Hey, just so you know, these numbers are from patent US20250250257A1.

protocol_details: Approximate solubility test of Compound I at room temperature / 50° C. in different solvents
Format: physicochemical
test_conditions: organic solvent or mixture, thermodynamic from solid; DMSO, 20-25° C.; read-out: Solubility (mg/mL) 20-25° C.
measured_quantity: solubility

Ask: Please report the recorded solubility for Cn1cnc(C2CC3CC(O)(c4cc(OCC(C)(C)O)nn4C)CC3C2)c1C(=O)Nc1ccc(F)c(Cl)c1 (stereo not shown) .
Result: 167 to 200 mg/mL

---

protocol_details: Approximate solubility test of Compound I at room temperature / 50° C. in different solvents
Type: physicochemical
test_conditions: organic solvent or mixture, thermodynamic from solid; Heptane, 50° C.; read-out: Solubility (mg/mL) 50° C.
measured_quantity: solubility

Ask: Fill in the blank: the reported solubility of Cn1cnc(C2CC3CC(O)(c4cc(OCC(C)(C)O)nn4C)CC3C2)c1C(=O)Nc1ccc(F)c(Cl)c1 (stereo not shown) [Compound I] is ____.
Result: < 3.3 mg/mL

---

protocol_details: Approximate solubility test of Compound I at room temperature / 50° C. in different solvents
Type: physicochemical
test_conditions: organic solvent or mixture, thermodynamic from solid; Acetone, 20-25° C.; read-out: Solubility (mg/mL) 20-25° C.
measured_quantity: solubility

Ask: Name the reported solubility value associated with the compound Cn1cnc(C2CC3CC(O)(c4cc(OCC(C)(C)O)nn4C)CC3C2)c1C(=O)Nc1ccc(F)c(Cl)c1 (stereo not shown) [Compound I]
Result: < 3.3 mg/mL

---

protocol_details: Approximate solubility test of Compound I at room temperature / 50° C. in different solvents
Format: physicochemical
test_conditions: organic solvent or mixture, thermodynamic from solid; Acetone/H2O = 95/5(V/V), 50° C.; read-out: Solubility (mg/mL) 50° C.
measured_quantity: solubility

Ask: What does the data say about its solubility? Entry: Cn1cnc(C2CC3CC(O)(c4cc(OCC(C)(C)O)nn4C)CC3C2)c1C(=O)Nc1ccc(F)c(Cl)c1 (stereo not shown)
Result: 6.5 to 6.7 mg/mL

---

protocol_details: Approximate solubility test of Compound I at room temperature / 50° C. in different solvents
Type: physicochemical
test_conditions: organic solvent or mixture, thermodynamic from solid; MeOH, 20-25° C.; read-out: Solubility (mg/mL) 20-25° C.
measured_quantity: solubility

Ask: I have this molecule here, Cn1cnc(C2CC3CC(O)(c4cc(OCC(C)(C)O)nn4C)CC3C2)c1C(=O)Nc1ccc(F)c(Cl)c1 (stereo not shown) , and I need its recorded solubility.
Result: 32.2 to 33.3 mg/mL

---

protocol_details: Approximate solubility of Compound I, Type 1 at RT in twenty solvents (stepwise solvent addition)
Assay type: physicochemical
test_conditions: organic solvent or mixture, thermodynamic from solid, IPA, read-out: Approximate Solubility (mg/mL) at RT
measured_quantity: solubility

Ask: Quick one: solubility for `Cn1cnc([C@@H]2C[C@@H]3C[C@@](O)(c4cc(OCC(C)(C)O)nn4C)C[C@@H]3C2)c1C(=O)Nc1ccc(F)c(Cl)c1` ?
Result: 2.2 to 7.3 mg/mL

---

protocol_details: Approximate solubility test of Compound I at room temperature / 50° C. in different solvents
Assay type: physicochemical
test_conditions: organic solvent or mixture, thermodynamic from solid; DMSO, 50° C.; read-out: Solubility (mg/mL) 50° C.
measured_quantity: solubility

Ask: Fill blank: measured solubility of the molecule Cn1cnc(C2CC3CC(O)(c4cc(OCC(C)(C)O)nn4C)CC3C2)c1C(=O)Nc1ccc(F)c(Cl)c1 (stereo not shown) is ____.
Result: 250 to 333 mg/mL

---

protocol_details: Approximate solubility of Compound I, Type 1 at RT in twenty solvents (stepwise solvent addition)
Type: physicochemical
test_conditions: organic solvent or mixture, thermodynamic from solid, CPME, read-out: Approximate Solubility (mg/mL) at RT
measured_quantity: solubility

Ask: # lookup: solubility of `Cn1cnc([C@@H]2C[C@@H]3C[C@@](O)(c4cc(OCC(C)(C)O)nn4C)C[C@@H]3C2)c1C(=O)Nc1ccc(F)c(Cl)c1`
Result: < 2.2 mg/mL

---

protocol_details: Approximate solubility of Compound I, Type 1 at RT in twenty solvents (stepwise solvent addition)
Type: physicochemical
test_conditions: organic solvent or mixture, thermodynamic from solid, MeOH, read-out: Approximate Solubility (mg/mL) at RT
measured_quantity: solubility

Ask: What value of solubility has been reported for the following molecule? Cn1cnc([C@@H]2C[C@@H]3C[C@@](O)(c4cc(OCC(C)(C)O)nn4C)C[C@@H]3C2)c1C(=O)Nc1ccc(F)c(Cl)c1 [Type 1]
Result: > 42 mg/mL

---

protocol_details: Approximate solubility test of Compound I at room temperature / 50° C. in different solvents
Format: physicochemical
test_conditions: organic solvent or mixture, thermodynamic from solid; IPAc, 20-25° C.; read-out: Solubility (mg/mL) 20-25° C.
measured_quantity: solubility

Ask: What measured solubility goes with Cn1cnc(C2CC3CC(O)(c4cc(OCC(C)(C)O)nn4C)CC3C2)c1C(=O)Nc1ccc(F)c(Cl)c1 (stereo not shown) ?
Result: < 3.3 mg/mL

---

protocol_details: Approximate solubility of Compound I, Type 1 at RT in twenty solvents (stepwise solvent addition)
Assay type: physicochemical
test_conditions: organic solvent or mixture, thermodynamic from solid, IPAc, read-out: Approximate Solubility (mg/mL) at RT
measured_quantity: solubility

Ask: Requested field: solubility. Item: `Cn1cnc([C@@H]2C[C@@H]3C[C@@](O)(c4cc(OCC(C)(C)O)nn4C)C[C@@H]3C2)c1C(=O)Nc1ccc(F)c(Cl)c1`
Result: < 2.1 mg/mL

---

protocol_details: Approximate solubility of Compound I, Type 1 at RT in twenty solvents (stepwise solvent addition)
Type: physicochemical
test_conditions: organic solvent or mixture, thermodynamic from solid, n-Heptane, read-out: Approximate Solubility (mg/mL) at RT
measured_quantity: solubility

Ask: So what's the measured solubility for this one? `Cn1cnc([C@@H]2C[C@@H]3C[C@@](O)(c4cc(OCC(C)(C)O)nn4C)C[C@@H]3C2)c1C(=O)Nc1ccc(F)c(Cl)c1`
Result: < 2.3 mg/mL

---

protocol_details: Approximate solubility of Compound I, Type 1 at RT in twenty solvents (stepwise solvent addition)
Type: physicochemical
test_conditions: organic solvent or mixture, thermodynamic from solid, n-Propanol, read-out: Approximate Solubility (mg/mL) at RT
measured_quantity: solubility

Ask: What value of solubility has been recorded for this entry: Cn1cnc([C@@H]2C[C@@H]3C[C@@](O)(c4cc(OCC(C)(C)O)nn4C)C[C@@H]3C2)c1C(=O)Nc1ccc(F)c(Cl)c1 [Type 1]
Result: 2.2 to 7.3 mg/mL

---

protocol_details: Approximate solubility test of Compound I at room temperature / 50° C. in different solvents
Assay type: physicochemical
test_conditions: organic solvent or mixture, thermodynamic from solid; MTBE, 20-25° C.; read-out: Solubility (mg/mL) 20-25° C.
measured_quantity: solubility

Ask: Form field: reported solubility of Cn1cnc(C2CC3CC(O)(c4cc(OCC(C)(C)O)nn4C)CC3C2)c1C(=O)Nc1ccc(F)c(Cl)c1 (stereo not shown) [Compound I]
Result: < 3.3 mg/mL

---

protocol_details: Approximate solubility of Compound I, Type 1 at RT in twenty solvents (stepwise solvent addition)
Assay type: physicochemical
test_conditions: organic solvent or mixture, thermodynamic from solid, EtOH, read-out: Approximate Solubility (mg/mL) at RT
measured_quantity: solubility

Ask: What does the record list as solubility for Cn1cnc([C@@H]2C[C@@H]3C[C@@](O)(c4cc(OCC(C)(C)O)nn4C)C[C@@H]3C2)c1C(=O)Nc1ccc(F)c(Cl)c1 [Type 1] ?
Result: 20 to 40 mg/mL

---

protocol_details: Approximate solubility test of Compound I at room temperature / 50° C. in different solvents
Assay type: physicochemical
test_conditions: organic solvent or mixture, thermodynamic from solid; Acetone/H2O = 95/5(V/V), 20-25° C.; read-out: Solubility (mg/mL) 20-25° C.
measured_quantity: solubility

Ask: Find the recorded solubility belonging to Cn1cnc(C2CC3CC(O)(c4cc(OCC(C)(C)O)nn4C)CC3C2)c1C(=O)Nc1ccc(F)c(Cl)c1 (stereo not shown) [Compound I] and report it.
Result: 5 to 5.1 mg/mL

---

protocol_details: Approximate solubility of Compound I, Type 1 at RT in twenty solvents (stepwise solvent addition)
Format: physicochemical
test_conditions: organic solvent or mixture, thermodynamic from solid, Acetonitrile, read-out: Approximate Solubility (mg/mL) at RT
measured_quantity: solubility

Ask: # query: solubility of entry `Cn1cnc([C@@H]2C[C@@H]3C[C@@](O)(c4cc(OCC(C)(C)O)nn4C)C[C@@H]3C2)c1C(=O)Nc1ccc(F)c(Cl)c1`
Result: < 2 mg/mL

---

protocol_details: Approximate solubility of Compound I, Type 1 at RT in twenty solvents (stepwise solvent addition)
Assay type: physicochemical
test_conditions: organic solvent or mixture, thermodynamic from solid, DMF, read-out: Approximate Solubility (mg/mL) at RT
measured_quantity: solubility

Ask: Endpoint output: solubility of `Cn1cnc([C@@H]2C[C@@H]3C[C@@](O)(c4cc(OCC(C)(C)O)nn4C)C[C@@H]3C2)c1C(=O)Nc1ccc(F)c(Cl)c1` . Value?
Result: > 48 mg/mL
